Data provenance: patent US20240059799A1

Biological target: T1, recombinant human TL1A (human, UniProt O95150 71-251)
T1 chain: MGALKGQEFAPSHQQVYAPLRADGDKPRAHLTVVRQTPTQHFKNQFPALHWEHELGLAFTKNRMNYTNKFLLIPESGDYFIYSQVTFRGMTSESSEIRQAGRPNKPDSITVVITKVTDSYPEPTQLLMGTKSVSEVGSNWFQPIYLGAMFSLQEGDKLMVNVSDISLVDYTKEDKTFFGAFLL
Assay: cell-based or functional assay
Quantity name: Whole blood IFNγ assay IC50 (nM)

INSERT INTO assay_data (binder, quantity_name, units_label, test_result) VALUES
  ('TL1A-0002 (antibody, human IgG1, kappa, V domains shown, human IgG1 effector-function-minimized/kappa; also called parental TL1A-0002) VH: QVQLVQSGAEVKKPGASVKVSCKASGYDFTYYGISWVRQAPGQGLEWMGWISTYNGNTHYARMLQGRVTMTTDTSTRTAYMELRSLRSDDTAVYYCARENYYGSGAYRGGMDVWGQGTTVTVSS VL: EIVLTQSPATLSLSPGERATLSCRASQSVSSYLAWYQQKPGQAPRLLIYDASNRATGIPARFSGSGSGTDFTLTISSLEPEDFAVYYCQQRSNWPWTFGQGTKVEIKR', 'Whole blood IFNγ assay IC50', 'nM', 0.83),
  ('TL1A-0263 (antibody, human IgG1, kappa, V domains shown, human IgG1 effector-function-minimized/kappa) VH: QVQLVQSGAEVKKPGASVKVSCKASGYDYTYYGISWVRQAPGQGLEWMGWISTYNTGTHYAQKLQGRVTMTTDTSTSTAYMELRSLRSDDTAVYYCARESYYGSGAHRGGMDVWGQGTTVTVSS VL: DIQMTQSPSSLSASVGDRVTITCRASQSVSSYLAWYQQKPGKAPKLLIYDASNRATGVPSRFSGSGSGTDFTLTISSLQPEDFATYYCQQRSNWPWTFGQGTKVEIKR', 'Whole blood IFNγ assay IC50', 'nM', 0.932),
  ('TL1A-0289 (antibody, human IgG1, kappa, V domains shown, human IgG1 effector-function-minimized/kappa) VH: QVQLVQSGAEVKKPGASVKVSCKASGYDFTYYGVSWVRQAPGQGLEWMGWISTYNTGTHYAPSLQGRVTMTTDTSTSTAYMELRSLRSDDTAVYYCARESYYGSGAHRGGMDVWGQGTTVTVSS VL: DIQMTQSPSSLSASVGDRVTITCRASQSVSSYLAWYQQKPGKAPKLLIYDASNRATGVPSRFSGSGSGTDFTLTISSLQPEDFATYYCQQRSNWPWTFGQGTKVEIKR', 'Whole blood IFNγ assay IC50', 'nM', 0.799);
